- subjectOfTest: Mtb PafA (Mycobacterium tuberculosis)
- Sequence (P9WNU7 whole entry, looked up): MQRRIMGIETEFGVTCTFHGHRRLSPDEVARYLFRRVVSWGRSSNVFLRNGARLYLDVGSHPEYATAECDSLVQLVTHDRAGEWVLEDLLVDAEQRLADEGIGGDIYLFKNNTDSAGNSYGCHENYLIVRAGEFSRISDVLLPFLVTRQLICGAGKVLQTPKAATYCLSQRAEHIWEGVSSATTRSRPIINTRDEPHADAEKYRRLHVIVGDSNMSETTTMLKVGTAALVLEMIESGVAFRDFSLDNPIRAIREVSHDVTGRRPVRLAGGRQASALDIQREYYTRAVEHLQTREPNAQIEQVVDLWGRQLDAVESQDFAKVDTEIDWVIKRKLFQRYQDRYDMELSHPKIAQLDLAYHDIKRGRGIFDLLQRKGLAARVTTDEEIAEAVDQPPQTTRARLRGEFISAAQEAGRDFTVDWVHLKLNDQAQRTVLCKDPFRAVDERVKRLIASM
reportedProperty: pIC50
Keep it numeric: pIC50 is minus log10 of the concentration in mol/L.

Return pIC50 measured with Mtb PafA (Mycobacterium tuberculosis) given this compound: NS(=O)(=O)c1ccc(NC(=S)NCCc2ccc(F)cc2)cc1
7.34
